Just for reference, patent US20260144882A1 is where these values come from.

# Tested target: T1, human Nectin-4 extracellular antigen hNectin-4-His (human, UniProt Q96NY8 32-349)
# T1 construct: C-terminal 8xHis tag included
# T1 sequence: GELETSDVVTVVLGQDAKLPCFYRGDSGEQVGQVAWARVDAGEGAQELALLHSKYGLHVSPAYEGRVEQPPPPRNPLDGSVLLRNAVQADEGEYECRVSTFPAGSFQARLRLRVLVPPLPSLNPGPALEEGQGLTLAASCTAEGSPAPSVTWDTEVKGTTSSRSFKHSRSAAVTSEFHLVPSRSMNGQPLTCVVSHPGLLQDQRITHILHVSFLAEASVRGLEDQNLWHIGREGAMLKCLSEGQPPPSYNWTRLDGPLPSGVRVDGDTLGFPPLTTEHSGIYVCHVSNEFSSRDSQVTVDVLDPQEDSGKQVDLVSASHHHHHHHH
# Assay method text: ELISA, phage scFv supernatant 1:50
Attribute measured: OD value (OD)
# unit: OD | format: bare number

Reported OD value ( 10F4-1D11 scFv (scFv, V domains shown, phage clone supernatant) VH: EVQLVESGGGLVQPGGSLRLSCAASGFIFSDFDMSWVRQAPGKGLEWVSGIKQSSAGINYADSVKGRFTISRDNSKNTLYLQMNSLRAEDTAVYYCAREYSDVVDYVSVRTPLDYWGQGTLVTVSS VL: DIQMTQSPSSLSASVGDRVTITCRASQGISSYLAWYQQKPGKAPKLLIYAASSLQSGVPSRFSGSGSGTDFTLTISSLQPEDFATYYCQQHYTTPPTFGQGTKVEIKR ) = 1.46

Input 1G8-2H11 scFv (scFv, V domains shown, phage clone supernatant) VH: EVQLVESGGGLVQPGGSLRLSCAASGFNFDNYAMSWVRQAPGKGLEWVSRIYGWDWYASYADSVKGRFTISRDNSKNTLYLQMNSLRAEDTAVYYCARQTEDRSYGYDLDYWGQGTLVTVSS VL: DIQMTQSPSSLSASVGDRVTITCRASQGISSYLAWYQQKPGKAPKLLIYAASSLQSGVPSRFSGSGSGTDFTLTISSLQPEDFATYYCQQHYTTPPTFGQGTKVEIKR . Output OD value: 1.35

In plain terms, 1G8-1E8 scFv (scFv, V domains shown, phage clone supernatant) VH: EVQLVESGGGLVQPGGSLRLSCAASGFTFDGYAMSWVRQAPGKGLEWVSRISSYSWNPDYADSVKGRFTISRDNSKNTLYLQMNSLRAEDTAVYYCARQTEDRSYGYDLDYWGQGTLVTVSS VL: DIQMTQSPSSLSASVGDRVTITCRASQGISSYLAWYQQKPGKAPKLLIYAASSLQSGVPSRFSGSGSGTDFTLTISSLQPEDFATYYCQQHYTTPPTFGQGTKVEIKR has a documented OD value of 1.55

1F3-1E1 scFv (scFv, V domains shown, phage clone supernatant) VH: EVQLVESGGGLVQPGGSLRLSCAASGFSFDDYAMSWVRQAPGKGLEWVSIIYPTGSTNYYADSVKGRFTISRDNSKNTLYLQMNSLRAEDTAVYYCARAELLAFDVYTASDYWGQGTLVTVSS VL: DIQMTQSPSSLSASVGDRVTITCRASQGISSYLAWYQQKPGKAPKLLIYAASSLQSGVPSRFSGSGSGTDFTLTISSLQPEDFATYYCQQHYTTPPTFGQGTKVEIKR has a reported OD value of 1.64

For reference, reported OD value for 1G8-2F2 scFv (scFv, V domains shown, phage clone supernatant) VH: EVQLVESGGGLVQPGGSLRLSCAASGDIFGSYAMSWVRQAPGKGLEWVSRISSHGASRDYADSVKGRFTISRDNSKNTLYLQMNSLRAEDTAVYYCARQTEDRSYGYDLDYWGQGTLVTVSS VL: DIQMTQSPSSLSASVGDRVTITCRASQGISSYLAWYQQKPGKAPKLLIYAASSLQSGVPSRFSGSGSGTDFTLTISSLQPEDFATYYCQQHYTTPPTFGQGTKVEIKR stands at 1.6
